study_target: Protein deacetylase HDAC6 (Homo sapiens, UniProt Q9UBN7)
Sequence (Q9UBN7 whole entry): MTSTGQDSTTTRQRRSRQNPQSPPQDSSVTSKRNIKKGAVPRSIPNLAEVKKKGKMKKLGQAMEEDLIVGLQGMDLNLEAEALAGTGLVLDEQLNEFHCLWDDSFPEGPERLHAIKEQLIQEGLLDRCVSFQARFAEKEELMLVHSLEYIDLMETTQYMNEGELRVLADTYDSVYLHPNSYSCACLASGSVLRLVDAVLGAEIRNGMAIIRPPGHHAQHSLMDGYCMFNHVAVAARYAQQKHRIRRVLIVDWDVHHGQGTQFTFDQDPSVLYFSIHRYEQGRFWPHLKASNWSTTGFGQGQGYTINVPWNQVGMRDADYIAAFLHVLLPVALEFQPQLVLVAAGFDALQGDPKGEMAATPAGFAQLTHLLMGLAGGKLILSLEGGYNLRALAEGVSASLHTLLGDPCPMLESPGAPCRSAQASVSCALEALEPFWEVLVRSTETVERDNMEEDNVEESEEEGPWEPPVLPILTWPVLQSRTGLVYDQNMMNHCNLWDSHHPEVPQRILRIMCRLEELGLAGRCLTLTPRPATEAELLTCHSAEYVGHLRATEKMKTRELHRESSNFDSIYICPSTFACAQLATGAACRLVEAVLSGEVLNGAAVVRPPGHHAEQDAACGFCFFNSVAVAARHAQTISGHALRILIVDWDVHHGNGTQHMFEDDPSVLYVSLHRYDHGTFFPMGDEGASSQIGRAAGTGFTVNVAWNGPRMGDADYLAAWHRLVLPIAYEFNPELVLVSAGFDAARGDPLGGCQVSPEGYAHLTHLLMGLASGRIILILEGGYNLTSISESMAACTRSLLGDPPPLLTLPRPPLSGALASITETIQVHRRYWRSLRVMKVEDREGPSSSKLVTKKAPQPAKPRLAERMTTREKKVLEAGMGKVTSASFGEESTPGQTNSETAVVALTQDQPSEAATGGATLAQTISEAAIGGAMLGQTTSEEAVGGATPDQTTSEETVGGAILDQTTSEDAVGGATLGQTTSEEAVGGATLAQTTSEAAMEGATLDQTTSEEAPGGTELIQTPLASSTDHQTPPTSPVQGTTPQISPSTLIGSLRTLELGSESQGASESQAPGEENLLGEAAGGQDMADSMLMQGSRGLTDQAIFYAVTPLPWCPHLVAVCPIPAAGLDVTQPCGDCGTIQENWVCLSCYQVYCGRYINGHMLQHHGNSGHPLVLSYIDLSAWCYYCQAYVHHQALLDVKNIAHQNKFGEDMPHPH
test_name: In vitro enzymatic HDACs assays: All Examples were tested in HDAC1, 2, 3, 6 and 8 in vitro enzymatic assays. The assay principle is well known (Hauser et al. 2009, Bradner et al. 2010) and all necessary reagents like enzymes, substrates, developer and reference compounds are commercially available (see e.g. BPS Biosciences http://www.bpsbioscience.com/). A series of dilutions of the compounds were prepared with a top concentration of 200 μM (2 μM for HDAC6). The enzymatic reactions were conducted in a mixture containing assay buffer, bovine serum albumin, HDAC substrate, and a test compound. After enzymatic reaction, developer was added and after an additional incubation time, fluorescence intensity was measured at an excitation wavelength of 360 nm and an emission wavelength of 460 nm. A selection of the Examples were tested in a full HDAC panel containing HDAC1, 2, 3, 4, 5, 6, 7, 8, 9, 10 and 11 in vitro enzymatic assays. The tests were performed as above except that a series of dilutions of the compounds were prepared with a top concentration of 10 μM for all HDACs.
endpoint_label: pIC50
Worth noting: pIC50 values are minus log10 of concentrations stated in mol/L.

Report pIC50 from Protein deacetylase HDAC6 (Homo sapiens, UniProt Q9UBN7) testing of "O=C(NO)c1ccc2nc(-c3ccc(-c4ccccc4)c(F)c3)[nH]c2c1"
7.72
